# measured.on: PKBβ (Homo sapiens, UniProt P31751)
# Sequence (P31751 whole entry): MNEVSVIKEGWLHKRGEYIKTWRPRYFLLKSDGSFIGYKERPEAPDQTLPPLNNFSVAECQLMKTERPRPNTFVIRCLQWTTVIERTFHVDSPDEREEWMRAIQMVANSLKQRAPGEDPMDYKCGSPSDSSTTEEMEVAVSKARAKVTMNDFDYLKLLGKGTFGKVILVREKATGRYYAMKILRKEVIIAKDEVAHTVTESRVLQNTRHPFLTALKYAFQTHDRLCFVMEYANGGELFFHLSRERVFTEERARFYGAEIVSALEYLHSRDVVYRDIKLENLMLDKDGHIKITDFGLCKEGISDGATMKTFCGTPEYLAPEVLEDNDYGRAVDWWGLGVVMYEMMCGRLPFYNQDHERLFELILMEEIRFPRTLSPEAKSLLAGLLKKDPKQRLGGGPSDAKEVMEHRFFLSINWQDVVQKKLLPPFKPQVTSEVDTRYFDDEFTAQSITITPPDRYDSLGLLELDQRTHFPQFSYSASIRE
# measurement.protocol: Kinase profiling (radiometric filter-binding)
# Format: biochemical
# cond: PKB, second of two PKB lines (Greek letter lost; PKBβ), 1 µM inhibitor; read-out: Residual activity, %
Square brackets hold non-standard residues; d marks the D form. Peptide text beside a SMILES is read from it. * marks the point of attachment. X3 = O=C(CCCCCNCc1nc2c(sc3cc(Br)cnc32)c(=O)[nH]1)*
Labelling field: enter T if recorded remaining activity at 1 µM is less than 50%. Enter F if it equals or exceeds that cut-off.

[
  {
    "molecule": "N=C(N)NCCC[C@@H](NC(=O)CCCCCNCc1nc2c(sc3cc(Br)cnc32)c(=O)[nH]1)C(=O)N[C@H](CCCNC(=N)N)C(=O)N[C@H](CCCNC(=N)N)C(=O)N[C@H](CCCNC(=N)N)C(=O)N[C@H](CCCNC(=N)N)C(=O)N[C@H](CCCNC(=N)N)C(=O)N[C@H](CCCCN)C(N)=O [ARC-3126, BPTP-Ahx-(D-Arg)6-D-Lys-NH2] (X3-[dR][dR][dR][dR][dR][dR][dK]-NH2)",
    "cat": "F"
  },
  {
    "molecule": "N=C(N)NCCC[C@@H](NC(=O)CNC(=O)[C@@H](CCCNC(=N)N)NC(=O)[C@@H](CCCNC(=N)N)NC(=O)Cn1cc(CNCc2nc3c(sc4ccc(Br)cc43)c(=O)[nH]2)nn1)C(=O)N[C@H](CCCCN)C(N)=O [Compound 3, BBTP-Amt-(D-Arg)2-Gly-D-Arg-D-Lys-NH2]",
    "cat": "F"
  },
  {
    "molecule": "CN(C)c1ccc2c(c1)Oc1cc(N(C)C)ccc1C21OC(=O)c2cc(C(=O)NCCCC[C@@H](NC(=O)[C@@H](CCCNC(=N)N)NC(=O)CNC(=O)[C@@H](CCCNC(=N)N)NC(=O)[C@@H](CCCNC(=N)N)NC(=O)CCCCc3cn(Cc4nc5c(sc6ccc(Br)cc65)c(=O)[nH]4)nn3)C(N)=O)ccc21 [Compound 8]",
    "cat": "F"
  },
  {
    "molecule": "N=C(N)NCCC[C@@H](NC(=O)CCCCCNC(=O)Cn1cnc2c(I)c(I)c(I)c(I)c21)C(=O)N[C@H](CCCNC(=N)N)C(=O)N[C@H](CCCNC(=N)N)C(=O)N[C@H](CCCNC(=N)N)C(=O)N[C@H](CCCNC(=N)N)C(=O)N[C@H](CCCNC(=N)N)C(=O)N[C@H](CCCCN)C(N)=O [ARC-3125, TIBI-CH2-C(=O)-Ahx-(D-Arg)6-D-Lys-NH2]",
    "cat": "T"
  },
  {
    "molecule": "N=C(N)NCCC[C@@H](NC(=O)CNC(=O)[C@@H](CCCNC(=N)N)NC(=O)[C@@H](CCCNC(=N)N)NC(=O)CCCCCCCNCc1nc2c(sc3cc(Br)cnc32)c(=O)[nH]1)C(=O)N[C@H](CCCCN)C(N)=O [Compound 1, BPTP-Aoc-(D-Arg)2-Gly-D-Arg-D-Lys-NH2]",
    "cat": "F"
  },
  {
    "molecule": "N=C(N)NCCC[C@@H](NC(=O)CNC(=O)[C@@H](CCCNC(=N)N)NC(=O)[C@@H](CCCNC(=N)N)NC(=O)CCCCCCCNCc1nc2c(sc3ccc(Br)cc32)c(=O)[nH]1)C(=O)N[C@H](CCCCN)C(N)=O [Compound 2, BBTP-Aoc-(D-Arg)2-Gly-D-Arg-D-Lys-NH2]",
    "cat": "F"
  }
]

* * *

# measured.on: TIE2 (Homo sapiens)
# Sequence (Q02763 23-1124): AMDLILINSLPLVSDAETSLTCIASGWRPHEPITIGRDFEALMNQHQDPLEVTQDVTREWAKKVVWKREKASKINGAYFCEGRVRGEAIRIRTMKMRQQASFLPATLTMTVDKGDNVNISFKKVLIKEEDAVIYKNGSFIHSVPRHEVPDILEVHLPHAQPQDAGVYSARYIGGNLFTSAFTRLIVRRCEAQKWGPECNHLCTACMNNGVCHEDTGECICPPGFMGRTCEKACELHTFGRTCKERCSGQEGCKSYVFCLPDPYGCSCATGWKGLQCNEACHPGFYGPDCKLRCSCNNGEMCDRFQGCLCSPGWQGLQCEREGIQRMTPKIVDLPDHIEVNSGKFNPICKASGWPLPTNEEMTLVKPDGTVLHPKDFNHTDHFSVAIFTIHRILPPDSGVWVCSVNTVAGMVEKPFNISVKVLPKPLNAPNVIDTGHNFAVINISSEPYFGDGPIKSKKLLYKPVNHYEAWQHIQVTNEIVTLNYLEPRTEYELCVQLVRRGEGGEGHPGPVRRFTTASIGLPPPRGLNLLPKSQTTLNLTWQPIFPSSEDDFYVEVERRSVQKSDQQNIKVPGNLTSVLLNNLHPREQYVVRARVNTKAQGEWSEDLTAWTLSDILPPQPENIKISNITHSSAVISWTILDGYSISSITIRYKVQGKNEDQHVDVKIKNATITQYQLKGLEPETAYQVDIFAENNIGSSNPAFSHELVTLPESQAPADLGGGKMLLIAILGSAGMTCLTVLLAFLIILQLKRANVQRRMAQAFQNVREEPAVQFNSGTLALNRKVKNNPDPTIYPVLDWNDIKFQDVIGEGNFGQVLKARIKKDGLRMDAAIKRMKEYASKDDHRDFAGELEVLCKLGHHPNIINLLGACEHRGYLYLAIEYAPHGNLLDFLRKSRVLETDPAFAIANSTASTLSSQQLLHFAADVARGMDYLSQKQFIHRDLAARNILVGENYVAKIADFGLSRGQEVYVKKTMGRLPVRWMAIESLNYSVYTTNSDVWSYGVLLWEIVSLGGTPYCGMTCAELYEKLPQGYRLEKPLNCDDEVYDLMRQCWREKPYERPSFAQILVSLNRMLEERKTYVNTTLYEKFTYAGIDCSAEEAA
# measurement.protocol: Kinase profiling (radiometric filter-binding)
# Type: biochemical
# cond: TIE2, 1 µM inhibitor; read-out: Residual activity, %
Square brackets hold non-standard residues; d marks the D form. Peptide text beside a SMILES is read from it. * marks the point of attachment. X3 = O=C(CCCCCNCc1nc2c(sc3cc(Br)cnc32)c(=O)[nH]1)*

[
  {
    "compound": "N=C(N)NCCC[C@@H](NC(=O)CNC(=O)[C@@H](CCCNC(=N)N)NC(=O)[C@@H](CCCNC(=N)N)NC(=O)Cn1cc(CNCc2nc3c(sc4ccc(Br)cc43)c(=O)[nH]2)nn1)C(=O)N[C@H](CCCCN)C(N)=O [Compound 3, BBTP-Amt-(D-Arg)2-Gly-D-Arg-D-Lys-NH2]",
    "measured.on": "TIE2 (Homo sapiens)",
    "units.of.measure": "%",
    "remaining activity at 1 µM": 103
  },
  {
    "compound": "N=C(N)NCCC[C@@H](NC(=O)CCCCCNCc1nc2c(sc3cc(Br)cnc32)c(=O)[nH]1)C(=O)N[C@H](CCCNC(=N)N)C(=O)N[C@H](CCCNC(=N)N)C(=O)N[C@H](CCCNC(=N)N)C(=O)N[C@H](CCCNC(=N)N)C(=O)N[C@H](CCCNC(=N)N)C(=O)N[C@H](CCCCN)C(N)=O [ARC-3126, BPTP-Ahx-(D-Arg)6-D-Lys-NH2] (X3-[dR][dR][dR][dR][dR][dR][dK]-NH2)",
    "measured.on": "TIE2 (Homo sapiens)",
    "units.of.measure": "%",
    "remaining activity at 1 µM": 106
  },
  {
    "compound": "N=C(N)NCCC[C@@H](NC(=O)CNC(=O)[C@@H](CCCNC(=N)N)NC(=O)[C@@H](CCCNC(=N)N)NC(=O)CCCCCCCNCc1nc2c(sc3cc(Br)cnc32)c(=O)[nH]1)C(=O)N[C@H](CCCCN)C(N)=O [Compound 1, BPTP-Aoc-(D-Arg)2-Gly-D-Arg-D-Lys-NH2]",
    "measured.on": "TIE2 (Homo sapiens)",
    "units.of.measure": "%",
    "remaining activity at 1 µM": 110
  },
  {
    "compound": "N=C(N)NCCC[C@@H](NC(=O)CNC(=O)[C@@H](CCCNC(=N)N)NC(=O)[C@@H](CCCNC(=N)N)NC(=O)CCCCCCCNCc1nc2c(sc3ccc(Br)cc32)c(=O)[nH]1)C(=O)N[C@H](CCCCN)C(N)=O [Compound 2, BBTP-Aoc-(D-Arg)2-Gly-D-Arg-D-Lys-NH2]",
    "measured.on": "TIE2 (Homo sapiens)",
    "units.of.measure": "%",
    "remaining activity at 1 µM": 109
  },
  {
    "compound": "N=C(N)NCCC[C@@H](NC(=O)CCCCCNC(=O)Cn1cnc2c(I)c(I)c(I)c(I)c21)C(=O)N[C@H](CCCNC(=N)N)C(=O)N[C@H](CCCNC(=N)N)C(=O)N[C@H](CCCNC(=N)N)C(=O)N[C@H](CCCNC(=N)N)C(=O)N[C@H](CCCNC(=N)N)C(=O)N[C@H](CCCCN)C(N)=O [ARC-3125, TIBI-CH2-C(=O)-Ahx-(D-Arg)6-D-Lys-NH2]",
    "measured.on": "TIE2 (Homo sapiens)",
    "units.of.measure": "%",
    "remaining activity at 1 µM": 104
  }
]

* * *

# measured.on: NEK6 (Homo sapiens, UniProt Q9HC98)
# Sequence (Q9HC98 whole entry): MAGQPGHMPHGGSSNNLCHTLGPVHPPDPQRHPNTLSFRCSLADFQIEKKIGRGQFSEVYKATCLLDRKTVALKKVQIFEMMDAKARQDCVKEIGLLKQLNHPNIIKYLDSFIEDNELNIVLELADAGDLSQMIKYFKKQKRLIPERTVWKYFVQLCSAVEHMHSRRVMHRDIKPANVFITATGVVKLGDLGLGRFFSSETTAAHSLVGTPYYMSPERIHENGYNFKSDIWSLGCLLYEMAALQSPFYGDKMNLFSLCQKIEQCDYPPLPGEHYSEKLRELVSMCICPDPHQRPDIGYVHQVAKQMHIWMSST
# measurement.protocol: Kinase profiling (radiometric filter-binding)
# Type: biochemical
# cond: NEK6, 1 µM inhibitor; read-out: Residual activity, %
Square brackets hold non-standard residues; d marks the D form. Peptide text beside a SMILES is read from it. * marks the point of attachment. X3 = O=C(CCCCCNCc1nc2c(sc3cc(Br)cnc32)c(=O)[nH]1)*
The following compounds are listed with their measured remaining activity at 1 µM values.

[
  {
    "compound": "N=C(N)NCCC[C@@H](NC(=O)CNC(=O)[C@@H](CCCNC(=N)N)NC(=O)[C@@H](CCCNC(=N)N)NC(=O)CCCCCCCNCc1nc2c(sc3cc(Br)cnc32)c(=O)[nH]1)C(=O)N[C@H](CCCCN)C(N)=O",
    "units.of.measure": "%",
    "remaining activity at 1 µM": 107
  },
  {
    "compound": "N=C(N)NCCC[C@@H](NC(=O)CCCCCNCc1nc2c(sc3cc(Br)cnc32)c(=O)[nH]1)C(=O)N[C@H](CCCNC(=N)N)C(=O)N[C@H](CCCNC(=N)N)C(=O)N[C@H](CCCNC(=N)N)C(=O)N[C@H](CCCNC(=N)N)C(=O)N[C@H](CCCNC(=N)N)C(=O)N[C@H](CCCCN)C(N)=O [ARC-3126, BPTP-Ahx-(D-Arg)6-D-Lys-NH2] (X3-[dR][dR][dR][dR][dR][dR][dK]-NH2)",
    "units.of.measure": "%",
    "remaining activity at 1 µM": 85
  },
  {
    "compound": "N=C(N)NCCC[C@@H](NC(=O)CCCCCNC(=O)Cn1cnc2c(I)c(I)c(I)c(I)c21)C(=O)N[C@H](CCCNC(=N)N)C(=O)N[C@H](CCCNC(=N)N)C(=O)N[C@H](CCCNC(=N)N)C(=O)N[C@H](CCCNC(=N)N)C(=O)N[C@H](CCCNC(=N)N)C(=O)N[C@H](CCCCN)C(N)=O",
    "units.of.measure": "%",
    "remaining activity at 1 µM": 97
  },
  {
    "compound": "N=C(N)NCCC[C@@H](NC(=O)CNC(=O)[C@@H](CCCNC(=N)N)NC(=O)[C@@H](CCCNC(=N)N)NC(=O)CCCCCCCNCc1nc2c(sc3ccc(Br)cc32)c(=O)[nH]1)C(=O)N[C@H](CCCCN)C(N)=O",
    "units.of.measure": "%",
    "remaining activity at 1 µM": 126
  },
  {
    "compound": "N=C(N)NCCC[C@@H](NC(=O)CNC(=O)[C@@H](CCCNC(=N)N)NC(=O)[C@@H](CCCNC(=N)N)NC(=O)Cn1cc(CNCc2nc3c(sc4ccc(Br)cc43)c(=O)[nH]2)nn1)C(=O)N[C@H](CCCCN)C(N)=O",
    "units.of.measure": "%",
    "remaining activity at 1 µM": 117
  }
]
